# ASSAYED_SYSTEM: SpCas9 (Streptococcus pyogenes serotype M1)
# Sequence (Q99ZW2 whole entry): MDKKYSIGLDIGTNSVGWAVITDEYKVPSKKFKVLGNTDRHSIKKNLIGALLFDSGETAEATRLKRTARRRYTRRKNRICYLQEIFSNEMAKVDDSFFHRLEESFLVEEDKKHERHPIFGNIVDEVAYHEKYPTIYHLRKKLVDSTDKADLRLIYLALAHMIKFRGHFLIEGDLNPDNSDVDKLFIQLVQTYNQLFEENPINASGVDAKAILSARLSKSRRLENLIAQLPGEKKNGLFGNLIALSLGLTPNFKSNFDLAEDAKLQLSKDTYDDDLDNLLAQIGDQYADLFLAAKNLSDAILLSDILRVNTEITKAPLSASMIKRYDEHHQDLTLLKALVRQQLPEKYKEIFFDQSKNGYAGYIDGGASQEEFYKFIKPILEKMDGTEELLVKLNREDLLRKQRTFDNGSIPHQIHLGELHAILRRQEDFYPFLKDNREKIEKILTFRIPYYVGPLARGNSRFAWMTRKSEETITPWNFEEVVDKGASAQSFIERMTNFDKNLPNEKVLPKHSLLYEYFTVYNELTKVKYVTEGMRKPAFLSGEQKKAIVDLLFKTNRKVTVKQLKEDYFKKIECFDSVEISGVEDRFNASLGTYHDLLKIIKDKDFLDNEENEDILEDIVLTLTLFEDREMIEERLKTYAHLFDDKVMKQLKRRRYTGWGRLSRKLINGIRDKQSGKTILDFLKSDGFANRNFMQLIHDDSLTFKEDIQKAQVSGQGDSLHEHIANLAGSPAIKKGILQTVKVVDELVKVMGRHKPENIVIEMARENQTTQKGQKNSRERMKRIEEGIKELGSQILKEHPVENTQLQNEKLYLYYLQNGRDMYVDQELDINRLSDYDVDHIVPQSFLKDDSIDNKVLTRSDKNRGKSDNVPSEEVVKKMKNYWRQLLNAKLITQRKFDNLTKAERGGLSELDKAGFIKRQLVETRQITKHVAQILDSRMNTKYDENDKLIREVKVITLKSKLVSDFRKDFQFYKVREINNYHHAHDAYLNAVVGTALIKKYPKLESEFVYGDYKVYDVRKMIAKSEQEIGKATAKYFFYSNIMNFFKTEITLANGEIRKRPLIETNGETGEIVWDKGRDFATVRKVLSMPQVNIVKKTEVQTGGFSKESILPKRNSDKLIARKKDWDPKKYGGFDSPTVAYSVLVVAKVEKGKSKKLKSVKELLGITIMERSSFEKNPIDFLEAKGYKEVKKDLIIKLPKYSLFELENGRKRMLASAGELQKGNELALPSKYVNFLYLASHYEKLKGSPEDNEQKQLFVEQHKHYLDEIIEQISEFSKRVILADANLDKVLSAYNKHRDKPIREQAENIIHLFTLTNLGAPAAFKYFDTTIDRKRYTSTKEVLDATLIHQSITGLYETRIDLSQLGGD
# METHOD: eGFP disruption assay, SpCas9, U2OS.eGFP.PEST cells
# Assay type: cell-based
# CONDITION_SET: replicate 2
Numbered stars: 1 amine (or outer) side, 2 acyl side, 3 side chain; on linkers, the order of the positions; unused ones are H or OH. Bridge positions count the residues as written; N and C are the ends. Square brackets hold non-standard residues; d marks the D form. Peptide text beside a SMILES is read from it. I, II: the chains in the order shown. Actinocin(9to1) = Cc1c2oc3c(C)ccc(C(=O)[*:1])c3nc-2c(C(=O)[*:2])c(N)c1=O; NMeV = CN[C@H](C(=O)O)C(C)C; Sar = CNCC(=O)O
Normalized Z rep2 overview
Just the number, please.

Example compounds with recorded Normalized Z rep2:
`Cc1cc(Sc2ccccc2NC(=O)c2cccc(F)c2)n2ncnc2n1` yielded Normalized Z rep2 of −0.20

Record Cc1c2oc3c(C)ccc(C(=O)N[C@@H]4C(=O)N[C@H](C(C)C)C(=O)N5CCC[C@H]5C(=O)N(C)CC(=O)N(C)[C@@H](C(C)C)C(=O)O[C@@H]4C)c3nc-2c(C(=O)N[C@@H]2C(=O)N[C@H](C(C)C)C(=O)N3CCC[C@H]3C(=O)N(C)CC(=O)N(C)[C@@H](C(C)C)C(=O)O[C@@H]2C)c(N)c1=O [SAM001246846] (I: T[dV]P[Sar][NMeV] / II: T[dV]P[Sar][NMeV]; ester I:1-I:C, II:1-II:C; linker I:N-II:N via Actinocin(9to1)) , field Normalized Z rep2: −2.71

Looking up Cc1[nH]nc2ccc(-c3cncc(OCC(N)Cc4ccccc4)c3)cc12 (stereo not shown) , I found its Normalized Z rep2 recorded as −3.50

Further cases:
Record Cc1ccc(C(C)NC(=O)c2cccc(Oc3cc(-c4ccccc4)ncn3)c2)cc1 (stereo not shown) , field Normalized Z rep2: −0.07

Measured Normalized Z rep2 of `O=C(O)c1ccc(N2CCN(c3ccccn3)CC2)c(NC(=O)c2ccc(Br)cc2)c1` : −0.20

Per the record, `COc1ccc(-c2cc(N3CCN(C(=O)c4ccc(C(C)(C)C)cc4)CC3)ncn2)cc1` has Normalized Z rep2 of −0.03

So for `Fc1ccc(OCc2nn3c(-c4ccccn4)nnc3s2)cc1` , the logged Normalized Z rep2 turned out to be −0.39
